Below, each entry is listed alongside its reported growth inhibition.
experimental-protocol: NCI Yeast Anticancer Drug Screen. Data for the sgs1 mgt1 strain (AID 161);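 also: 0% = growth of cultures given vehicle only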
details: S. cerevisiae sgs1 mgt1 strain, at 5.0 µM (retest, dose inferred, filed as 0.5), active compounds read high
Compounds without any hit were thinned out: in the full panel of roughly 79,000, 15% have a hit.

molecule	growth inhibition, %
C1CSCCCSCCCSCCCSCCCSC1	7
CCCCCCCCCCCCCCSC(=NC)NC	100
S=C(N/N=C/c1ccccn1)N1CCCCCC1	98
O=S(=O)(c1ccc(OCC(O)COc2ccc(S(=O)(=O)c3ccc(OCC4CO4)cc3)cc2)cc1)c1ccc(OCC2CO2)cc1 (stereo not drawn)	0
O=C(Nc1ccccc1-c1nn(C(=S)Nc2ccccc2)c(=S)n(C(=S)Nc2ccccc2)c1=O)C(F)(F)F	10
N#Cc1snc2sc(=O)sc12	100
COc1nc(Nc2ccc(/C=C/c3ccc(Nc4nc(OC)nc(N(CCO)CCO)n4)cc3S(=O)(=O)O)c(S(=O)(=O)O)c2)nc(N(CCO)CCO)n1	-3
O.O.O=C(O)C(O)C(O)C(OC1OC(CO)C(O)C(O)C1O)C(O)CO.O=C(O)C(O)C(O)C(OC1OC(CO)C(O)C(O)C1O)C(O)CO.[NH-]C1CCCCC1[NH-].[Pt+2] (stereo not drawn)	0
O=C(Oc1cccc2cccnc12)c1ccccc1	-4
CCOC(=N)CCCSSc1ccc(N=[N+]=[N-])cc1	-5
O=C1C=CC(=O)C(Sc2ccccc2)=C1	-4
CCCCC(CC(=O)O)c1ccc(Cl)cc1 (stereo not drawn)	-58
CCCCc1ccc2nc(C)cc(N/N=C/c3ccc4c(c3)OCO4)c2c1	15
O=C1Oc2ccccc2C1c1ccccc1 (stereo not drawn)	4
COc1ccc(/C=C/c2c[n+]([O-])ccc2[N+](=O)[O-])cc1	37
CC1=NC2=NC(CCCC(=O)OCc3ccc(Cl)c(Cl)c3)=NC3=CC=CC(=N1)N32	5
CC1C(c2ccc3c(c2)OCO3)c2cc3c(cc2OC1N1CCOCC1)OCO3 (stereo not drawn)	17
NC(=Nc1cc2ccccc2c2ccccc12)/N=C(/N)Nc1cc2ccccc2c2ccccc12	99
Clc1ccccc1CN1COc2c(ccc3cccnc23)C1	7
COC(=O)[C@@H]1c2cc3c(c(O)c2[C@@H](OC2OC(C)C(OC)C(C)(OC)C2OC)C[C@]1(C)O)C(=O)c1c(O)cc2c(c1C3=O)O[C@H]1O[C@]2(C)[C@H](O)[C@@H](N(C)C)[C@@H]1O (stereo partly drawn)	35
COc1ccc2c(c1OC)C(C(Cl)(Cl)Cl)N1CCc3cc4c(cc3C1=C2)OCO4 (stereo not drawn)	7
NCCCSc1ccc(Br)cc1	-4
O=C1OC2(Cc3ccccc31)c1ccccc1-c1ccccc12	-6
C#CC(NCCC(C)CC(C)(C)C)C(C)C (stereo not drawn)	-3
CN(C)COC(=S)SCN(C)C	99
COC1(OC)CNC(C(=O)O)C1 (stereo not drawn)	-66
O=C1OC(c2ccccc2)CC1Cc1ccccc1 (stereo not drawn)	-2
Cc1cc(Cl)ccc1OCC(=O)Oc1c(Cl)c(Cl)c(Cl)c(Cl)c1Cl	0
CCCc1cc(=O)oc2c3c(c4c(c12)OC(C)(C)C=C4)O[C@@H](C)[C@H](C)[C@H]3O	11
CC(C)(Sc1cc(Cl)c(Cl)c(Cl)c1)C(=O)OCCN1CCOCC1	87
COc1ccc2c(c1)C(=O)C(Br)CC2 (stereo not drawn)	2
COC(=O)/C=C1/Nc2ccc(Cl)cc2C(=O)NC1=O	36
O=C(c1ccco1)N(C(=S)N1CCN(c2ccccn2)CC1)c1ccccc1	-1
CC(C)N(CN1C(=O)N/C(=C/c2cccc(/C=C3/NC(=O)N(CN(C(C)C)C(C)C)C3=O)c2)C1=O)C(C)C	-1
O=C1N[C@H]2[C@H](CS[C@H]2CCCCC(=O)N(CCP(c2ccccc2)c2ccccc2)CCP(c2ccccc2)c2ccccc2)N1	11
CCN(CC)CCOC(=O)C1C(c2ccccc2)C1(c1ccccc1)c1ccccc1 (stereo not drawn)	8
CC(=O)Nc1ccc(-c2cnc3ccccc3c2)cc1	8
Cc1cc(/C=C/c2cccc[n+]2C)c(C)n1-c1ccccc1	1
C/C(=N\NC(=S)NCc1ccccc1)c1nccnc1C	35
C=C1C(=O)OC2C/C(C)=C/CC/C(C)=C/CCC3(COC(C)=O)OC3CC12 (stereo not drawn)	10
COc1ccc(C2CC(CO)ON2c2ccccc2)cc1 (stereo not drawn)	-1
COC(=O)c1cc(OC)c(OC)c(OC)c1	2
Cc1ccc2c(c1)[n+]([O-])c(N)c(C#N)[n+]2[O-]	-16
